system: EFAD formation in RAW264.7 cells; assay: Inhibitor study: EFAD formation in RAW264.7 cells activated with Kdo2 and IFNγ; type: cell-based, murine; conditions: MK886 500 nM, ETYA 25 μM, OKA 50 nM, indomethacin 25 μM, diclofenac 1 μM, NS-398 4 μM; 20 h
value type: Effect on EFAD formation (in words)

**Q:** Kindly state the measured Effect on EFAD formation (in words) obtained for "O=C(O)Cc1ccccc1Nc1c(Cl)cccc1Cl" with EFAD formation in RAW264.7 cells.
**A:** completely abolish

**Q:** Kindly state the measured Effect on EFAD formation (in words) obtained for "COc1ccc2c(c1)c(CC(=O)O)c(C)n2C(=O)c1ccc(Cl)cc1" with EFAD formation in RAW264.7 cells.
**A:** completely abolish

###

tested on: EFAD formation in RAW264.7 cells; assay: Inhibitor study: EFAD formation in RAW264.7 cells activated with Kdo2 and IFNγ; assay type: cell-based, murine; conditions: RAW264.7 + Kdo2 + IFNγ, 20 h; ↓ decrease, ↑ increase, NE (not defined in patent)
value type: Effect of inhibitor on EFAD-1 formation

Worked cases, Effect of inhibitor on EFAD-1 formation given:
**Q:** Please look up its Effect of inhibitor on EFAD-1 formation: COc1ccc2c(c1)c(CC(=O)O)c(C)n2C(=O)c1ccc(Cl)cc1 [Indomethacin]
**A:** ↓

**Q:** Please look up its Effect of inhibitor on EFAD-1 formation: O=c1c(-c2ccc(O)cc2)coc2cc(O)cc(O)c12 [genistein]
**A:** ↓

**Q:** Please look up its Effect of inhibitor on EFAD-1 formation: CC(C)Cc1ccc(C(C)C(=O)O)cc1 (racemic) [Ibuprofen]
**A:** ↓

**Q:** Please look up its Effect of inhibitor on EFAD-1 formation: O=C(O)Cc1ccccc1Nc1c(Cl)cccc1Cl [Diclofenac]
**A:** ↓

**Q:** Please look up its Effect of inhibitor on EFAD-1 formation: CC(=O)Oc1ccccc1C(=O)O [ASA, acetyl salicylic acid]
**A:** ↑

Consider now this further compound.
**Q:** Please look up its Effect of inhibitor on EFAD-1 formation: CCCCCC#CCC#CCC#CCC#CCCCC(=O)O [ETYA, Eicosatetraynoic acid]
**A:** ↓
